Origin of measurements: patent US20200093909A1

Target: T1, NANP-peptide (Plasmodium falciparum)
T1 construct: CSP repeat peptide coated at 2 ug/mL in ELISA; also called NANP repeat region peptide
T1 peptide: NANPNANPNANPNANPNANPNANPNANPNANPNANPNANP
Assay: ELISA, peptide coated, titrated antibody
recorded-metric: binding result

MGU1 (antibody, V domains shown) VH: QVQLVESGGGVVQPGRSLRLSCAASGFAFSSYGMNWVRQAPGKGLEWVAVIWHDGTNKYYRDSVKGRFIISRDNAKNTLYLQMDSLSAEDTAMYYCAIWYLDSPDHGFDIWGRGTMVTVSS VL: QLVLTQSPSASASLGVSVTLTCTLNNGHSSNAIAWHQQQPGKGPRYLMKVNSDGSHNKGAAVPDRFSGSSSGTERHLTISSLQSDDEADYYCQAWDSGIWVFGGGTKLTVL: binds
